- target-under-test: Aiolos (Homo sapiens, UniProt Q96SW2+Q9UKT9)
- Construct: endogenous in cells; host or cells: human PBMCs (CD20+CD3- B cells, CD3+CD20- T cells)
- Sequence (Q9UKT9 whole entry): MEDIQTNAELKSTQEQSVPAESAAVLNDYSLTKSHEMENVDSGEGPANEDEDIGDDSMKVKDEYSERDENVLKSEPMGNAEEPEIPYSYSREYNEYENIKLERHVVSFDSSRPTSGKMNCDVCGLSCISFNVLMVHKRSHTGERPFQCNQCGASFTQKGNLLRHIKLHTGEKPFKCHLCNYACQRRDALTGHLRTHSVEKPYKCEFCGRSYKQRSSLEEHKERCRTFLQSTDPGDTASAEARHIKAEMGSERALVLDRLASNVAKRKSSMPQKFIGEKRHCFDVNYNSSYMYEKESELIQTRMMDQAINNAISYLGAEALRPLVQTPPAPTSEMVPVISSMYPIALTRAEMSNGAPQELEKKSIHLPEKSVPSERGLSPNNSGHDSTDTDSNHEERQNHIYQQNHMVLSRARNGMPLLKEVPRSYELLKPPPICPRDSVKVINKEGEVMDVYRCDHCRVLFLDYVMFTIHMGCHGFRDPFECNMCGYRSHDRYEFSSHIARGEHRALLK
- Sequence (Q96SW2 whole entry): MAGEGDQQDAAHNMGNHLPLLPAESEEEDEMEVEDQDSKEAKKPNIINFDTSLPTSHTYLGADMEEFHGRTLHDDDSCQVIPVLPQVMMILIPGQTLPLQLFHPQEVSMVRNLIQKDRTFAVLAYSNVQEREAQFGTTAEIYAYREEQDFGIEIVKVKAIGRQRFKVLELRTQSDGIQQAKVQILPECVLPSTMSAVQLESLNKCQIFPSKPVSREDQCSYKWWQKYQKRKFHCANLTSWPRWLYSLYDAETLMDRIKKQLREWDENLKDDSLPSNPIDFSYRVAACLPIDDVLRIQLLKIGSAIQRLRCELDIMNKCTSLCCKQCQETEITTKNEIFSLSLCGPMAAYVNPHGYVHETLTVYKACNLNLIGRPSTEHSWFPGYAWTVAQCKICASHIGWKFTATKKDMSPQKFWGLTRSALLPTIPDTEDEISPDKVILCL
- Sequence (Q16531 whole entry partner): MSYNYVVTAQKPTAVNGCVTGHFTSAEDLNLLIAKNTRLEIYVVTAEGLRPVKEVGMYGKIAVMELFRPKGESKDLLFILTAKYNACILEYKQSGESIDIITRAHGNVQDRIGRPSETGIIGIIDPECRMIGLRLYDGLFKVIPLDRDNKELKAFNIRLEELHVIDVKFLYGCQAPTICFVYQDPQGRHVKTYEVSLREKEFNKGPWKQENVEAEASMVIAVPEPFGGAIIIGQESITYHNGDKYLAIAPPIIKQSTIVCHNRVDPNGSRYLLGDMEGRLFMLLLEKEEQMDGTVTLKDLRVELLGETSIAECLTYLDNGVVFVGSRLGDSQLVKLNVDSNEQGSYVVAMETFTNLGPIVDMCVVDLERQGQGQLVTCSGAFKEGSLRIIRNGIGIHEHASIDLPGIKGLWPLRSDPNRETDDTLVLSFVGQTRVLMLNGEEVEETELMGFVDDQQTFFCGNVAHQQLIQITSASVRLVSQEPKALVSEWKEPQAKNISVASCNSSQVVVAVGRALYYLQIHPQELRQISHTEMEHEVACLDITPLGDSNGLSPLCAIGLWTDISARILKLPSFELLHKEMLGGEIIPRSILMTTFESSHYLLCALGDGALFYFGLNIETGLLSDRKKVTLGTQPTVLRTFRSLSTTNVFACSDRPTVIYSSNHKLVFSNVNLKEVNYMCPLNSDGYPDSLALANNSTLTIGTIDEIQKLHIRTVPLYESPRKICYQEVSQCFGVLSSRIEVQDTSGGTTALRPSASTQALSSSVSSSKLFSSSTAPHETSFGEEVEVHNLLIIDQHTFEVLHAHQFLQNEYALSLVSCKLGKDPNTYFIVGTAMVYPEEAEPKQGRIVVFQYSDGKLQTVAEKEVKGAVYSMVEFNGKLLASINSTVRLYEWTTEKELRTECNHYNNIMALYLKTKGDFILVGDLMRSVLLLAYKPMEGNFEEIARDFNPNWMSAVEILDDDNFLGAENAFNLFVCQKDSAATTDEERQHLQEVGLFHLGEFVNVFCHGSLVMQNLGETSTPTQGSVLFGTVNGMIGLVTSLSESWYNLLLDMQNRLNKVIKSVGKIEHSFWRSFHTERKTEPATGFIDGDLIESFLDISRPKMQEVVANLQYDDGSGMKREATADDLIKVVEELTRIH
- experiment-description: Aiolos degradation in human PBMCs, flow cytometry (IMiD activity)
- Format: cell-based
- experimental-context: 24 hours, Aiolos degradation
Heads up, the class ranges for DC50 are lower level = under 8 nM, middle level = from 8 nM up to 20 nM, upper level = 20 nM and over

molecule	label
CN1CCN([C@H]2CCCN(c3cnc(C(N)=O)c(Nc4cnn(C5CCN(CC6CN(c7ccc8c(c7)C(=O)N(C7CCC(=O)NC7=O)C8=O)C6)CC5)c4)n3)C2)C1=O (stereo partly drawn) [Compound 6]	upper level

In: Entry CN1CCN([C@@H]2CCCN(c3cnc(C(N)=O)c(Nc4ccc5c(c4)CCN(C4CN(c6ccc7c(c6)C(=O)N(C6CCC(=O)NC6=O)C7=O)C4)C5)n3)C2)C1=O (stereo partly drawn) [Compound 8] belongs to which category?
Out: lower level

In: Entry CN1CCN([C@@H]2CCCN(c3cnc(C(N)=O)c(Nc4ccc(C5CCN(C[C@H]6CC[C@H](Nc7cccc8c7C(=O)N(C7CCC(=O)NC7=O)C8=O)CC6)CC5)cc4)n3)C2)C1=O (stereo partly drawn) [Compound 3] belongs to which category?
Out: upper level

In: Entry CN1CCN([C@H]2CCCN(c3cnc(C(N)=O)c(Nc4ccc5c(c4)CCN(CC4CN(c6ccc7c(c6)C(=O)N(C6CCC(=O)NC6=O)C7=O)C4)C5)n3)C2)C1=O (stereo partly drawn) [Compound 7] belongs to which category?
Out: lower level

In: Entry CN1CCN([C@@H]2CCCN(c3cnc(C(N)=O)c(Nc4ccc(N5CC6(C5)CN(c5ccc7c(c5)C(=O)N(C5CCC(=O)NC5=O)C7=O)C6)cc4)n3)C2)C1=O (stereo partly drawn) [Compound 10] belongs to which category?
Out: middle level

In: Entry CN1CCN([C@@H]2CCCN(c3cnc(C(N)=O)c(Nc4ccc(OCCCNc5ccc6c(c5)C(=O)N(C5CCC(=O)NC5=O)C6=O)cc4)n3)C2)C1=O (stereo partly drawn) [Compound 16] belongs to which category?
Out: upper level

In: Entry CN1CCN([C@@H]2CCCN(c3cnc(C(N)=O)c(Nc4ccc(C5CCN(CC6CCN(c7ccc8c(c7)C(=O)N(C7CCC(=O)NC7=O)C8=O)CC6)CC5)cc4)n3)C2)C1=O (stereo partly drawn) [Compound 14] belongs to which category?
Out: middle level
